Target: Pyridoxine-5'-phosphate oxidase (Mus musculus) (UniProt Q91XF0)
Sequence (Q91XF0 whole entry): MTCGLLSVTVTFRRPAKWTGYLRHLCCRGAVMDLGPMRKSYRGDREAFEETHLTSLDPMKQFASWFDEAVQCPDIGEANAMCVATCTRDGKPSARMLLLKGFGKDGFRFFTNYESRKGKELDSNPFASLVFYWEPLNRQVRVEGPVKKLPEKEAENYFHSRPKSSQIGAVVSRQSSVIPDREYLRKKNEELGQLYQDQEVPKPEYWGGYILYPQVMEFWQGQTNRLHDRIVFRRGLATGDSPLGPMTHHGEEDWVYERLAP
Test: Inhibition of pyridoxine phosphate oxidase in mouse TA3 cells assessed as inhibition of 1 x 10^-7 M pyridoxal-induced cell growth
Assay type: cell-based
assay.readout: ID50

Inquiry: Return ID50 (reported value) for this compound: C=C(Cl)c1c(CO)cnc(C)c1O
Reply text: 9.5 µM

Inquiry: Return ID50 (reported value) for this compound: Cc1ncc(COCc2ccccc2)c(/C=C/Cl)c1OCc1ccccc1
Reply text: 3 µM

Inquiry: Return ID50 (reported value) for this compound: CC/C=C/c1c(COCc2ccccc2)cnc(C)c1OCc1ccccc1
Reply text: 1.5 ×10⁻⁵ M

Inquiry: Return ID50 (reported value) for this compound: C=C/C=C/c1c(COCc2ccccc2)cnc(C)c1OCc1ccccc1
Reply text: 1.5 ×10⁻⁵ M

Inquiry: Return ID50 (reported value) for this compound: C#Cc1c(COP(=O)(O)O)cnc(C)c1O
Reply text: 3.8 µM

Inquiry: Return ID50 (reported value) for this compound: C=Cc1c(CO)cnc(C)c1O
Reply text: 0.0025 µM

Inquiry: Return ID50 (reported value) for this compound: Cc1ncc(CO)c(C)c1O
Reply text: 6.8 ×10⁻⁸ M

Inquiry: Return ID50 (reported value) for this compound: C#Cc1c(CO)cnc(C)c1O
Reply text: 8 µM

Inquiry: Return ID50 (reported value) for this compound: Cc1ncc(CO)c(/C=C/Br)c1O
Reply text: 1.2 ×10⁻⁵ M
